Listed below: IC90 values for each entry.
tested on: Acinetobacter baumannii ATCC17961; experiment: Antimicrobial susceptibility testing: 90% growth inhibitory concentration (IC90) determination in Iso-Sensitest broth, OD600 growth; format: cell-based; settings: strain ATCC 17961, OD600 growth over 16 h, read-out: A. baumannii ATCC 17961 IC90
measured.metric: IC90 (nM)

compound="CCc1cc(Nc2nccn3c(-c4c[nH]nc4C(F)(F)F)cnc23)ccc1C(=O)NCCNC(=O)[C@H]1C[C@@H](N)C1 [Example 804]" measurement_unit=nM value_reported=511
compound="NC1CN(C(=O)c2ccc(Nc3nccn4c(-c5c[nH]nc5C(F)(F)F)cnc34)cc2Cl)C1 [Example 167]" measurement_unit=nM value_reported=485
compound="NC1CCC(NC(=O)c2ccc(Nc3nccn4c(-c5c[nH]nc5C(F)(F)F)cnc34)cc2Cl)CC1 (stereo not shown) [Example 405]" measurement_unit=nM value_reported=1300
compound="NCCOCCNC(=O)c1ccc(Nc2nccn3c(-c4cn(CC(F)F)nc4C(F)(F)F)cnc23)cc1Cl [Example 252]" measurement_unit=nM value_reported=169

---

system: Acinetobacter baumannii ATCC17961; assay: Antimicrobial susceptibility testing: 90% growth inhibitory concentration (IC90) determination in Iso-Sensitest broth, OD600 growth; format: cell-based; conditions: Acinetobacter baumannii, ATCC17961, 16 h, strain ATCC 17961, OD600 growth over 16 h, read-out: A. baumannii ATCC 17961 IC90
Counter-ions that a name gives are not always drawn.
Lab note: anything with IC90 below 200 nM is marked yes; values at 200 nM or higher are marked no.

compound="CCc1cc(Nc2nccn3c(-c4cn(CC(F)F)nc4C(F)(F)F)cnc23)ccc1C(=O)NCC(=O)N1CC2CC1CN2 (centres unmarked)" label_value=no
compound=C#CCn1cc(-c2cnc3c(Nc4ccc(C(=O)NC)c(CC)c4)nccn23)c(C(F)(F)F)n1 label_value=yes
compound=O=C(c1ccc(Nc2nccn3c(-c4cn(CC(F)F)nc4C(F)(F)F)cnc23)cc1Cl)N1CC2(C1)CN(C(=O)[C@@H]1CCCN1)C2 label_value=no
compound=N#CCn1cc(-c2cnc3c(Nc4ccc(C(=O)NC56CC(N)(C5)C6)c(Cl)c4)nccn23)c(C(F)(F)F)n1 label_value=no
compound=N#CCn1cc(-c2cnc3c(Nc4ccc(C(=O)N5CC[C@H](O)C5)c(Cl)c4)nccn23)c(C(F)(F)F)n1 label_value=no
compound=CCNC(=O)c1ccc(Nc2nccn3c(-c4cn(CC#N)nc4C(F)(F)F)cnc23)cc1Cl label_value=yes
compound=NCCCNC(=O)CNCCNC(=O)c1ccc(Nc2nccn3c(-c4cn(CC(F)F)nc4C(F)(F)F)cnc23)cc1Cl label_value=yes
compound=C#CCn1cc(-c2cnc3c(Nc4ccc(C(=O)NC)c(Cl)c4)nccn23)c(C(F)(F)F)n1 label_value=yes
compound=N#CCn1cc(-c2cnc3c(Nc4ccc(C(=O)N5CCN(C(=O)CN)CC5)c(Cl)c4)nccn23)c(C(F)(F)F)n1 label_value=yes
compound=CCc1cc(Nc2nccn3c(-c4cn(CC(F)F)nc4C(F)(F)F)cnc23)ccc1C(=O)NCCCNC(=O)[C@@H]1CCCN1 label_value=yes
compound=N#CCn1cc(-c2cnc3c(Nc4ccc(C(=O)N5CCN(C(=O)[C@@H]6CCCN6)CC5)c(Cl)c4)nccn23)c(C(F)(F)F)n1 label_value=yes
compound=C#CCn1cc(-c2cnc3c(Nc4ccc(C(=O)N5CCN(C(=O)[C@H](C)N)CC5)c(CC)c4)nccn23)c(C(F)F)n1 label_value=no
compound="N#CCn1cc(-c2cnc3c(Nc4ccc(C(=O)NCCOCCN)c(F)c4)nccn23)c(C(F)(F)F)n1 [Example 810, hydrochloride]" label_value=no

---

Listed below: log10(IC90) values for each entry.
tested on: Acinetobacter baumannii ATCC17961; experiment: Antimicrobial susceptibility testing: 90% growth inhibitory concentration (IC90) determination in Iso-Sensitest broth, OD600 growth; format: cell-based; conditions: Acinetobacter baumannii, ATCC17961, 16 h, strain ATCC 17961, OD600 growth over 16 h, read-out: A. baumannii ATCC 17961 IC90
measured.metric: log10(IC90) (log10 of the value in nM)

cpd_smiles=Cc1cc(Nc2nccn3c(-c4cn(CC(F)F)nc4C(F)(F)F)cnc23)cc(F)c1C(=O)N[C@H](C)CNC(=O)C1CCNCC1 assayed_system="Acinetobacter baumannii ATCC17961" measured_metric=log10(IC90) value_reported=2.59
cpd_smiles=C[C@@H]1CN(C(=O)c2ccc(Nc3nccn4c(-c5c[nH]nc5C(F)(F)F)cnc34)cc2Cl)CCN1 assayed_system="Acinetobacter baumannii ATCC17961" measured_metric=log10(IC90) value_reported=3.02
cpd_smiles=CCc1cc(Nc2nccn3c(-c4cn(CC#N)nc4C(F)(F)F)cnc23)ccc1C(=O)NCCCNC(=O)[C@H]1C[C@@H](N)C1 assayed_system="Acinetobacter baumannii ATCC17961" measured_metric=log10(IC90) value_reported=2.24
cpd_smiles=CCc1cc(Nc2nccn3c(-c4cn(CC#N)nc4C(F)(F)F)cnc23)ccc1C(=O)NCCNC(=O)[C@H]1C[C@H](N)C1 assayed_system="Acinetobacter baumannii ATCC17961" measured_metric=log10(IC90) value_reported=2.23
cpd_smiles=C#CCn1cc(-c2cnc3c(Nc4ccc(C(=O)NCCOCC(C)(C)N)c(CC)c4)nccn23)c(C(F)(F)F)n1 assayed_system="Acinetobacter baumannii ATCC17961" measured_metric=log10(IC90) value_reported=1.77
cpd_smiles=C#CCn1cc(-c2cnc3c(Nc4ccc(C(=O)N5CCN(C(=O)C6CCNCC6)CC5)c(CC)c4)nccn23)c(C(F)(F)F)n1 assayed_system="Acinetobacter baumannii ATCC17961" measured_metric=log10(IC90) value_reported=2.42

---

Listed below: IC90 values for each entry.
tested on: Acinetobacter baumannii ATCC17961; assay: Antimicrobial susceptibility testing: 90% growth inhibitory concentration (IC90) determination in Iso-Sensitest broth, OD600 growth; type: cell-based; settings: Acinetobacter baumannii, ATCC17961, 16 h, strain ATCC 17961, OD600 growth over 16 h, read-out: A. baumannii ATCC 17961 IC90
Structures can show the parent of a compound that is named as a salt.
measured.metric: IC90 (nM)

molecule="CCc1cc(Nc2nccn3c(-c4c[nH]nc4C(F)(F)F)cnc23)ccc1C(=O)NCCCNC(=O)[C@@H](N)CNC(=N)N [Example 13, formate]" measured_metric=IC90 measurement_unit=nM value_reported=166
molecule=O=C(c1ccc(Nc2nccn3c(-c4c[nH]nc4C(F)(F)F)cnc23)cc1Cl)N1CCN(C(=O)[C@@H]2CCCN2)CC1 measured_metric=IC90 measurement_unit=nM value_reported=105
molecule="CCc1cc(Nc2nccn3c(-c4cn(CC#N)nc4C(F)(F)F)cnc23)ccc1C(=O)NCCNC(=O)[C@H]1CC[C@@H](N)C1 [Example 496, formate]" measured_metric=IC90 measurement_unit=nM value_reported=173
molecule=CCc1cc(Nc2nccn3c(-c4cn(CCF)nc4C(F)(F)F)cnc23)ccc1C(=O)NCCOC[C@H](C)N measured_metric=IC90 measurement_unit=nM value_reported=4030
molecule=C=CCn1cc(-c2cnc3c(Nc4ccc(C(=O)N[C@@H](C)CN)c(CC)c4)nccn23)c(C(F)(F)F)n1 measured_metric=IC90 measurement_unit=nM value_reported=270
molecule=Cc1cc(Nc2nccn3c(-c4cn(CC(F)F)nc4C(F)(F)F)cnc23)cc(F)c1C(=O)N[C@H](C)CNC(=O)[C@H]1[C@@H]2CNC[C@@H]21 measured_metric=IC90 measurement_unit=nM value_reported=259

---

system: Acinetobacter baumannii ATCC17961; test: Antimicrobial susceptibility testing: 90% growth inhibitory concentration (IC90) determination in Iso-Sensitest broth, OD600 growth; format: cell-based; conditions: Acinetobacter baumannii, ATCC17961, 16 h, strain ATCC 17961, OD600 growth over 16 h, read-out: A. baumannii ATCC 17961 IC90
Structures can show the parent of a compound that is named as a salt.
Lab note: anything with IC90 below 200 nM is marked TRUE; values at 200 nM or higher are marked FALSE.

compound=CCc1cc(Nc2nccn3c(-c4c[nH]nc4C(F)(F)F)cnc23)ccc1C(=O)NCCCNC(=O)CNC(=O)C(F)(F)F label_value=FALSE
compound=CNC(=O)c1ccc(Nc2nccn3c(-c4cn(CCC#N)nc4C(F)(F)F)cnc23)cc1Cl label_value=TRUE
compound="Cc1cc(Nc2nccn3c(-c4c[nH]nc4C(F)(F)F)cnc23)ccc1C(=O)N1CCN(C(=O)[C@@H]2CNCC[C@@H]2O)CC1 (racemic) [Example 468, hydrochloride]" label_value=FALSE
compound=C#CCNC(=O)c1c(C)cc(Nc2nccn3c(-c4cn(CC=C)nc4C(F)(F)F)cnc23)cc1F label_value=FALSE

---

system: Acinetobacter baumannii ATCC17961; experiment: Antimicrobial susceptibility testing: 90% growth inhibitory concentration (IC90) determination in Iso-Sensitest broth, OD600 growth; assay type: cell-based; details: Acinetobacter baumannii, ATCC17961, 16 h, strain ATCC 17961, OD600 growth over 16 h, read-out: A. baumannii ATCC 17961 IC90
Listed below: IC90 values for each entry.
measured.metric: IC90 (nM)

cpd_smiles=C#CCn1cc(-c2cnc3c(Nc4ccc(C(=O)N5CCN(C(=O)C6(O)CCNCC6)CC5)c(CC)c4)nccn23)c(C(F)F)n1 assayed_system="Acinetobacter baumannii ATCC17961" measurement_unit=nM value_reported=678
cpd_smiles=CCc1cc(Nc2nccn3c(-c4cn(CC(F)F)nc4C(F)(F)F)cnc23)ccc1C(=O)NCC(=O)N[C@H]1CCNC1 assayed_system="Acinetobacter baumannii ATCC17961" measurement_unit=nM value_reported=226
cpd_smiles=NCCNC(=O)c1ccc(Nc2nccn3c(-c4c[nH]nc4C(F)(F)F)cnc23)cc1Cl assayed_system="Acinetobacter baumannii ATCC17961" measurement_unit=nM value_reported=738
cpd_smiles=CCOCCCNC(=O)c1ccc(Nc2nccn3c(-c4c[nH]nc4C(F)(F)F)cnc23)cc1CC assayed_system="Acinetobacter baumannii ATCC17961" measurement_unit=nM value_reported=1120
cpd_smiles=O=C(N[C@H]1CCN(C(=O)[C@@H]2C[C@@H](O)CN2)C1)c1ccc(Nc2nccn3c(-c4c[nH]nc4C(F)(F)F)cnc23)cc1Cl assayed_system="Acinetobacter baumannii ATCC17961" measurement_unit=nM value_reported=995
cpd_smiles=CCc1cc(Nc2nccn3c(-c4cn(COC)nc4C(F)F)cnc23)ccc1C(=O)N1CCN(C(=O)[C@H](C)N)CC1 assayed_system="Acinetobacter baumannii ATCC17961" measurement_unit=nM value_reported=904
cpd_smiles=O=C(c1ccc(Nc2nccn3c(-c4cn(Cc5cc[nH]n5)nc4C(F)(F)F)cnc23)cc1Cl)N1CCNCC1 assayed_system="Acinetobacter baumannii ATCC17961" measurement_unit=nM value_reported=110

Reference source for all entries: patent US20230203043A1
